protocol summary: NCI Yeast Anticancer Drug Screen. Data for the rad50EPP+ strain (AID 151);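 also: 0% = growth of vehicle-treated control cultures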
condition details: S. cerevisiae rad50 mutant strain, at 11.0 µM
This is part of a sample that, as a whole, favours compounds with a hit. Of some 79,000 tested, about 15% had one in any assay. Calls of active or inactive are those of the source. Rule as the data show it: active = growth inhibition above about 70%; inactive = the rest.
# output must be one of 1.0 (active), 0.0 (inactive)

[in] Please indicate how the test categorized CCN(CC)c1cccc(Nc2nc3ccccc3s2)c1 .
[out] 0.0

[in] Called result for OC1C#CCSCC#C/C=C\1 (stereo not drawn)
[out] 0.0

[in] Hi, sorry to bother you, what did the test record for OC(c1ccc(Br)cc1)(c1cccs1)C1CC1 (stereo not drawn) ?
[out] 0.0

[in] Hi team, can someone confirm the assay call for CCCCCC(=O)C(C)(c1nc2n(c1O)/C(=N/C(=O)Nc1ccc(Cl)cc1)N=N2)c1nc2n(c1O)/C(=N/C(=O)Nc1ccc(Cl)cc1)N=N2 ?
[out] 0.0

[in] Test call for this compound, please: Cc1ccc2nc(N/N=C/c3ccc(C)s3)cc(C)c2c1
[out] 0.0

[in] Short answer needed: outcome of this test for CCOC(=O)/C=C1\CCCn2c1ncc(C(=O)OCC)c2=O ?
[out] 0.0

[in] Each compound tested received a call. Report the one for CCOc1nc(OCC)nc(-c2cccn2-c2ccccc2)n1 .
[out] 0.0

[in] # lookup: test call for Cc1c(N=Nc2ccc(Cl)cc2)c(C)n(C2OC(CO)C(O)C(O)C2O)c(=S)c1C#N (stereo not drawn)
[out] 0.0

[in] Dear all, I need the recorded test outcome for CCN(CC)CCSc1c2ccccc2nc2cc(NCC(=O)Nc3ccccc3-c3ccccc3NC(=O)CNc3ccc4c(SCCN(CC)CC)c5ccccc5nc4c3)ccc12 , thank you.
[out] 0.0

[in] State the result this test recorded for CCSc1c2ccccc2c(-c2nc(F)nc(F)n2)n1CCc1ccccc1 .
[out] 0.0

[in] Could you please tell me the result logged for Cc1c2ccncc2c(C)c2c1oc1ccccc12 in this assay?
[out] 1.0

[in] Lab log entry: COc1ccc2c(Cc3c4ccccc4cc4ccccc34)cncc2c1O — outcome as called in the assay?
[out] 0.0

[in] Any idea what this test logged for O=[N+]([O-])C(=C(NCc1ccccc1)NCc1ccccc1)C(Cl)=C(Cl)Cl ?
[out] 0.0

[in] Could you please tell me the result logged for CC(C)(C(=O)NN)c1ccccc1 in this assay?
[out] 0.0

[in] // param item: O=CC(=C(I)I)c1ccccc1 ; yields the recorded call
[out] 1.0

[in] Check the results log: what was the call for O=C1C(C(O)(C(F)(F)F)C(F)(F)F)CCC1C(O)(C(F)(F)F)C(F)(F)F (stereo not drawn) ?
[out] 0.0

[in] Outcome? O=c1c(Br)cc2c(-c3ccccc3)c3cc(Br)c(O)c(Br)c3oc-2c1Br
[out] 0.0

[in] In this assay, the call recorded for O=C1OC(/C=C/c2ccccc2)Sc2ccccc21 (stereo not drawn) was what?
[out] 0.0

[in] Status in this test for BrC/C=C/C[P+](c1ccccc1)(c1ccccc1)c1ccccc1 ?
[out] 0.0

[in] Which result was noted for this compound in the test: S=C1NC2=C(CSC/C2=C\c2ccc(Cl)cc2)C(c2ccc(Cl)cc2)N1 (stereo not drawn)
[out] 0.0

[in] Which result was noted for this compound in the test: O=C1c2ccc(O)cc2C(=O)c2c(O)ccc(O)c21
[out] 1.0

[in] Any idea what this test logged for c1cc(Nc2ccc3c(c2)OCO3)c2cc(C3CCCCC3)ccc2n1 ?
[out] 0.0

[in] Assay result, entry Cc1ccccc1C1=C(CC(=O)O)c2ccccc2CC1C (stereo not drawn) — outcome?
[out] 0.0

All values here come from PubChem BioAssay (NCI).
